MEASUREMENT_DESCRIPTION: folding stability dG unfold from chymotrypsin proteolysis; higher = more stable
MEASURED_ATTRIBUTE: folding stability dG unfold (kcal/mol)
Response body: numeric value in kcal/mol, unit text excluded.

Check out these entries, answers already filled in.
{"columns": ["RECORD_SEQUENCE", "folding stability dG unfold / kcal/mol"],
 "data": [
  ["SAGGEIAKRFAKYARDAGYDVRVDVEIIPPDEFPGLKPGKPYVIKVEIEVTPPNGPRRPLGEFTIMINSAGG [r13_874_TrROS]", 3.18],
  ["SAGKTITVTSTHPDGRTATVTYTTLPDGSFKITSFTWEPWPDGTVTAKITTPDGTVITVNSIDDILKALSAG [r5_618_TrMRF]", 3.52],
  ["SAGGITIELRNPNGEPVEVHLKRDPDGTLELSVHMRGPEGRHYMVTMTIKVKNNGIEIDKFDNWYPLPSAGG [r13_451_TrROS]", 4.16],
  ["SAGGGALVLPDPDVPDDLPLVVVDPENGTVTLLHFDRETGRVRARVVRLGDGVPEEEEAVFPVAPDALSAGG [r13_851_TrMRF]", -0.261],
  ["SAGGSAGGDGLELKLTFTIPVTARSPLGGSYPVYLRLTLTYRLDDPRWELDLYALDPNGNWYPVSAGGSAGG [r6_393_TrMRF]", 5.12],
  ["SAGGSAPEDNYVVLIFIDISIEWKPKYDEDNGKNRIEFEWKLEIDIPTIVLPPDDPEAKDLLEDLLSAGGSA [r15_470_TrROS]", 3.35],
  ["SAGGSAGGNPDTPVLTRKTSETFNIAPGEVVKFPDSSVVTPTEDGTYTIDKTITYNGPPDKPLTSAGGSAGG [r6_635_JUSTAS]", 0.345],
  ["SAGGSAGGSAGMRIVLRLPRDVPLEALRRELEALGGEVRIETEDDPDGRLLFVVELRPKESAGGSAGGSAGG [r11_1050_TrMRF]", 1.81],
  ["SAGMSITIESDTNAPPDLPDIGEEEKLALAEELKEKALADPRYPDEEVVIVRPFKTPGGARWTITVVVSAGG [r19_132_JUSTAS]", 1.29],
  ["SAGMLRELLDNPDVKRLEIVIFIPEEDLSEEDRERARERARELAERLRELLRERGYDVEIEVRIVRLPPSAG [r5_408_TrROS_Hall]", 3.22]
]}

Lookup: What does the record list as folding stability dG unfold for SAGGSAGGSAGKMYKLTIEKDGKEIEIIVSEDELKEIAKKLGLPPNAKIKVEKVSPEELKSAGGSAGGSAGG [r17_395_TrROS_Hall] ?
Found: 3.8
